Reference source for all entries: patent US20240270874A1

EC50 reference
# tgt: T1, human KLB on CHOK1-hKLB cells (human, UniProt Q86Z14 1-1044)
# T1 construct: whole, on cells; also called human KLB antigen; β-Klotho
# T1 sequence (looked up): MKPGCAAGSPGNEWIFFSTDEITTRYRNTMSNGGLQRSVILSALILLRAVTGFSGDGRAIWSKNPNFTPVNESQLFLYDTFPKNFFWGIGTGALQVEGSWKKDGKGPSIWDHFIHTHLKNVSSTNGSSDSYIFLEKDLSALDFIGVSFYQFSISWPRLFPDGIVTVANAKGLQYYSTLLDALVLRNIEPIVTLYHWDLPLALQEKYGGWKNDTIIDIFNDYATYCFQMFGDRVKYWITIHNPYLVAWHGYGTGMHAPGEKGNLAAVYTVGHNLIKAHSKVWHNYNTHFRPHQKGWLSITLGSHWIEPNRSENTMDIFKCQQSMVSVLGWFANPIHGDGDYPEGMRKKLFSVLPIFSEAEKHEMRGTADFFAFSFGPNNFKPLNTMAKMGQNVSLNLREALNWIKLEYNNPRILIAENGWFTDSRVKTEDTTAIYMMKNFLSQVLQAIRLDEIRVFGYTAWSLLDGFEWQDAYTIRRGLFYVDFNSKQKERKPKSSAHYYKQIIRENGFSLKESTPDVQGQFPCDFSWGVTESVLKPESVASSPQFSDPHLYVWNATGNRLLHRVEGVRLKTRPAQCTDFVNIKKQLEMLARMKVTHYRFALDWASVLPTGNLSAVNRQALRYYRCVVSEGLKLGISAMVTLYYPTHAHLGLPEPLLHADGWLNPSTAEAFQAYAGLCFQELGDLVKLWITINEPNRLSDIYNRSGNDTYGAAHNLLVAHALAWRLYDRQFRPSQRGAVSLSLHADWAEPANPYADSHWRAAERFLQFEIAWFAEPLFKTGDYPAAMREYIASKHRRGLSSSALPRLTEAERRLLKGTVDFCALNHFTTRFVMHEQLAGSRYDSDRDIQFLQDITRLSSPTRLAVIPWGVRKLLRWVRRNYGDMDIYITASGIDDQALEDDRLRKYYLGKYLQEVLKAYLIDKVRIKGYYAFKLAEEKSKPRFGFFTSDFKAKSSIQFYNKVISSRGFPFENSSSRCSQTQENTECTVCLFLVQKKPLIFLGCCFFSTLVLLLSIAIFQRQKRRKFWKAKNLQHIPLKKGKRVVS
# protocol_notes: flow cytometry on CHOK1-hKLB cells
All answers are understood in nM, so give the number only.

Some binders with recorded EC50:
hAb18-10 (antibody, human IgG1, kappa, L234A L235A, V domains shown, humanized mAb-18: hAb18VH1 + hAb18VL2-4; human IgG1 (L234A, L235A) / kappa constant regions) VH: EVQLVQSGAEVKKPGASVKVSCKASGYTFTDYAMHWVRQAPGQRLEWMGVISTYSGTTNYNQNFKGRVTITVDKSASTAYMELSSLRSEDTAVYYCARSGPLDYWGQGTTVTVSS VL: ENVLTQSPDFQSVTPKEKVTITCRASSSVSTSYLHWYQQKPDQSPKLWIYSTSQLASGVPSRFSGSGSGTDYTLTINSLEAEDAATYYCQQYSGYPLTFGQGTKLEIKR :: 2.7
hAb99-12 (antibody, human IgG1, kappa, L234A L235A, V domains shown, humanized mAb-99: hAb99VH3 + hAb99VL4; human IgG1 (L234A, L235A) / kappa constant regions) VH: EVQLVQSGAEVKKPGASVKVSCKTSGYTFTNYGINWVRQAPGQGLEWMGYIYIGNGDIEYNAKFKGRVTITSDTSASTAYMELSSLRSEDTAVYFCARGRGLGHFDVWGQGTTVTVSS VL: DVQITQSPSSLSASVGDRVTITCRASKSISKFLAWFQEKPGKTNKLLIYSGSTLQSGIPSRFSGSGSGTDFTLTISSLQPEDFATYYCQQHNEYPWTFGGGTKVEIKR :: 0.33

Briefly, EC50 measured for hAb18-5 (antibody, human IgG1, kappa, L234A L235A, V domains shown, humanized mAb-18: hAb18VH3 + hAb18VL1; human IgG1 (L234A, L235A) / kappa constant regions) VH: EVQLVQSGAEVKKPGASVKVSCKGSGYTFTDYAMHWVRQAPGQRLEWIGVISTYSGTTNYNQNFKGRATVTVDKSASTAYMELSSLRSEDTAVYYCARSGPLDYWGQGTTVTVSS VL: EIVLTQSPDFQSVTPKEKVTITCRASSSVSSSYLHWYQQKPDQSPKLWIYSTSNLASGVPSRFSGSGSGTDFTLTINSLEAEDAATYYCQQYSGYPLTFGQGTKLEIKR : 1.8
